Hey, just so you know, these numbers are from patent US8093226B2.

- System: A549
- Test Name: Test A: Cytostatic Cell Culture Assay (GI50), A549
- Format: cell-based
- Setup Conditions: Homo sapiens, 120 h; A549 cells, 5 days, SRB; read-out: G150 Lung A549
Could you please report measured pIC50 for the items listed next?
One number for each entry, as −log10 of the molar value.

Record excerpt, results attached:
>  <Query Smiles>
OC[C@H]1O[C@@H](n2cc(F)c3c(-c4ccoc4)ncnc32)[C@H](O)[C@@H]1O

>  <pIC50>
7.22

$$$$
>  <Query Smiles>
OC[C@H]1O[C@@H](n2cc(F)c3c(-c4ccsc4)ncnc32)[C@H](O)[C@@H]1O

>  <pIC50>
6.42

$$$$
>  <Query Smiles>
OC[C@H]1O[C@@H](n2cc(F)c3c(-c4nccs4)ncnc32)[C@H](O)[C@@H]1O

>  <pIC50>
6.04

$$$$

Please give pIC50 for each item listed below.
1. OC[C@H]1O[C@@H](n2cc(F)c3c(-c4ccc[nH]4)ncnc32)[C@H](O)[C@@H]1O
2. OC[C@H]1O[C@@H](n2ccc3c(-c4ccc[se]4)ncnc32)[C@H](O)[C@@H]1O

result:
1: 6.71; 2: 6.64

Please give pIC50 for each item listed below.
1. OC[C@H]1O[C@@H](n2ccc3c(-c4c[nH]cn4)ncnc32)[C@H](O)[C@@H]1O
2. OC[C@H]1O[C@@H](n2ccc3c(-c4ccccn4)ncnc32)[C@H](O)[C@@H]1O
3. OC[C@H]1O[C@@H](n2ccc3c(-c4ccn[nH]4)ncnc32)[C@H](O)[C@@H]1O
4. OC[C@H]1O[C@@H](n2cc(Cl)c3c(-c4ccsc4)ncnc32)[C@H](O)[C@@H]1O

result:
1. 5.59
2. 5.31
3. 5.49
4. 6.42

Please give pIC50 for each item listed below.
1. OC[C@H]1O[C@@H](n2ccc3c(-c4nccs4)ncnc32)[C@H](O)[C@@H]1O
2. OC[C@H]1O[C@@H](n2cc(Cl)c3c(-c4ccco4)ncnc32)[C@H](O)[C@@H]1O
3. OC[C@H]1O[C@@H](n2cc(Cl)c3c(-c4ccoc4)ncnc32)[C@H](O)[C@@H]1O
4. OC[C@H]1O[C@@H](n2cc(Cl)c3c(-c4cccs4)ncnc32)[C@H](O)[C@@H]1O

result:
1. 6.39
2. 4.82
3. 5.98
4. 6.43
